# Assay Target: BTK (Homo sapiens (Human))
# Method Summary: BTK Ramos cellular assay (phosphorylation of BTK substrate PLCγ2)
# Type: cell-based
# Test Conditions: Ramos cells, anti-IgM stimulated, read-out: BTK Inhibition (BTK Ramos Cellular Inhibition Data)
pIC50: −log10 of the molar value.
Readout Kind: pIC50

Q: Check the records and state pIC50 for C=CC(=O)Nc1cccc(Oc2nc(Nc3ccc(OC)nc3)ncc2C(=O)NC2CC2)c1 [Compound I-176]
Ans: 6.00 to 7.00

* * *

# Assay Target: BTK (Homo sapiens (Human), UniProt Q06187)
# Sequence (Q06187 whole entry): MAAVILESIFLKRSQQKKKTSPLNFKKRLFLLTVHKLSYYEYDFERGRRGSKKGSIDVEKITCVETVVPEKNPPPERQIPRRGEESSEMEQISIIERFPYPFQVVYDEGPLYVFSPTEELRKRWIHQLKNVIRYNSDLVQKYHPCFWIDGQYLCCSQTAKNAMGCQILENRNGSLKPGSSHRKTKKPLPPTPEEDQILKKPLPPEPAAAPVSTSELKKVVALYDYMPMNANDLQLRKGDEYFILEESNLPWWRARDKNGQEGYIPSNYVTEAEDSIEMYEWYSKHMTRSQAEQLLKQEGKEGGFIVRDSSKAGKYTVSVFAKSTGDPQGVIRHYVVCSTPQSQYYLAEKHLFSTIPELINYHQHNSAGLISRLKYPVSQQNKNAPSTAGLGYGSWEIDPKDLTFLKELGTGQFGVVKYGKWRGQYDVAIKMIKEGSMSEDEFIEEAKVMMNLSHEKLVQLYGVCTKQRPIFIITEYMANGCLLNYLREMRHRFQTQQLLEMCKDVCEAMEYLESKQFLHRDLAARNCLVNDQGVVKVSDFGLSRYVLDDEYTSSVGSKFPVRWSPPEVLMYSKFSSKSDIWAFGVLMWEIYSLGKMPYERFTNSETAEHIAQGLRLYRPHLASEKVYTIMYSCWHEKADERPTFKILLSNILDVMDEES
# Method Summary: Omnia assay protocol for potency assessment against BTK
# Type: biochemical
# Test Conditions: Omnia assay; [BTK]=5 nM; read-out: BTK Inhibition
pIC50: −log10 of the molar value.
Readout Kind: pIC50

Q: Check the records and state pIC50 for C=CC(=O)Nc1cccc(Oc2nc(Nc3ccc(OC)nc3)ncc2C(=O)NC2CC2)c1 [Compound I-176]
Ans: > 8.00

Origin of measurements: patent US10828300B2
